The measurements presented in this section are drawn from paper PMC6539525.

system: A549 cells; test: MTT cytotoxicity in A549 cells; type: cell-based; conditions: Homo sapiens, A549, normoxia 96 h, read-out: IC50 A549 Normoxia
pIC50: −log10 of the molar value.
PARAMETER_MEASURED: pIC50

INSERT INTO results (compound, result) VALUES
  ('C[C@H]1[C@@H](OCc2cn(Cc3cc(=O)oc4cc(O)ccc34)nn2)O[C@@H]2O[C@@]3(C)CC[C@H]4[C@H](C)CC[C@@H]1[C@@]24OO3 [3f]', '< 4.00'),
  ('C[C@H]1[C@@H](OCc2cn(Cc3cc4ccccc4oc3=O)nn2)O[C@@H]2O[C@@]3(C)CC[C@H]4[C@H](C)CC[C@@H]1[C@@]24OO3 [1a]', 4.08),
  ('Cc1cc(C)c2c(OCc3cn(CCO[C@H]4O[C@@H]5O[C@@]6(C)CC[C@H]7[C@H](C)CC[C@@H]([C@H]4C)[C@@]57OO6)nn3)cc(=O)oc2c1 [5l]', '< 4.00'),
  ('Cc1cc(C)c2oc(=O)cc(OCc3cn(CCCO[C@H]4O[C@@H]5O[C@@]6(C)CC[C@H]7[C@H](C)CC[C@@H]([C@H]4C)[C@@]57OO6)nn3)c2c1 [6m]', 4.55),
  ('C[C@H]1[C@@H](OCCc2cn(Cc3cc4ccccc4oc3=O)nn2)O[C@@H]2O[C@@]3(C)CC[C@H]4[C@H](C)CC[C@@H]1[C@@]24OO3 [2a]', '< 4.00'),
  ('Cc1ccc2oc(=O)cc(Cn3cc(CO[C@H]4O[C@@H]5O[C@@]6(C)CC[C@H]7[C@H](C)CC[C@@H]([C@H]4C)[C@@]57OO6)nn3)c2c1 [3i]', '< 4.00'),
  ('C[C@H]1[C@@H](OCCc2cn(Cc3cc4cc(Br)ccc4oc3=O)nn2)O[C@@H]2O[C@@]3(C)CC[C@H]4[C@H](C)CC[C@@H]1[C@@]24OO3 [2b]', '< 4.00'),
  ('C[C@H]1[C@@H](O)O[C@@H]2O[C@@]3(C)CC[C@H]4[C@H](C)CC[C@@H]1[C@@]24OO3 [DHA, Dihydroartemisinin]', '< 4.00'),
  ('COc1cccc2c1C(=O)c1c(O)c3c(c(O)c1C2=O)C[C@@](O)(C(=O)CO)C[C@@H]3O[C@H]1C[C@H](N)[C@H](O)[C@H](C)O1 [DOX, Doxorubicin, reference compound]', '< 5.70');

###

test system: HCT-116 cells; assay: MTT cytotoxicity in HCT-116 cells; assay type: cell-based; conditions: Homo sapiens, HCT-116, hypoxia 24 h then normoxia 72 h, read-out: IC50 HCT-116 Hypoxia
One threshold, 40 µM, splits the recorded IC50 values: lower ones are TRUE, equal or higher ones are FALSE.

INSERT INTO assay_data (molecule, test_target, qualitative_label) VALUES
  ('Cc1cccc2c(OCc3cn(CCO[C@H]4O[C@@H]5O[C@@]6(C)CC[C@H]7[C@H](C)CC[C@@H]([C@H]4C)[C@@]57OO6)nn3)cc(=O)oc12 [5o]', 'HCT-116 cells', 'TRUE'),
  ('C[C@H]1[C@@H](OCCc2cn(Cc3cc4cc(Cl)cc(Cl)c4oc3=O)nn2)O[C@@H]2O[C@@]3(C)CC[C@H]4[C@H](C)CC[C@@H]1[C@@]24OO3 [2d]', 'HCT-116 cells', 'FALSE'),
  ('C[C@H]1[C@@H](OCc2cn(Cc3cc4cc(Cl)cc(Cl)c4oc3=O)nn2)O[C@@H]2O[C@@]3(C)CC[C@H]4[C@H](C)CC[C@@H]1[C@@]24OO3 [1d]', 'HCT-116 cells', 'FALSE'),
  ('Cc1ccc2oc(=O)cc(OCc3cn(CCCO[C@H]4O[C@@H]5O[C@@]6(C)CC[C@H]7[C@H](C)CC[C@@H]([C@H]4C)[C@@]57OO6)nn3)c2c1 [6p]', 'HCT-116 cells', 'TRUE'),
  ('Cc1cc(C)c2oc(=O)cc(OCc3cn(CCO[C@H]4O[C@@H]5O[C@@]6(C)CC[C@H]7[C@H](C)CC[C@@H]([C@H]4C)[C@@]57OO6)nn3)c2c1 [5m]', 'HCT-116 cells', 'FALSE'),
  ('C[C@H]1[C@@H](OCCc2cn(Cc3cc4ccccc4oc3=O)nn2)O[C@@H]2O[C@@]3(C)CC[C@H]4[C@H](C)CC[C@@H]1[C@@]24OO3 [2a]', 'HCT-116 cells', 'FALSE');

###

test system: NO release of LPS-induced microglial N9 cells; experiment: Inhibition of NO release in LPS-induced N9 cells (Griess); type: cell-based, murine; settings: Mus musculus, 1 μg/mL LPS for 48 h, NO level in medium
PARAMETER_MEASURED: IC50 (nM)

INSERT INTO measurements (molecule, modifier_sign, quantitative_readout) VALUES
  ('C[C@H]1[C@@H](OCCn2cc(COc3cc(=O)oc4ccccc34)nn2)O[C@@H]2O[C@@]3(C)CC[C@H]4[C@H](C)CC[C@@H]1[C@@]24OO3', '=', 1590),
  ('C[C@H]1[C@@H](OCCc2cn(Cc3cc4cc(Br)cc(Br)c4oc3=O)nn2)O[C@@H]2O[C@@]3(C)CC[C@H]4[C@H](C)CC[C@@H]1[C@@]24OO3', '=', 940),
  ('Cc1cc(C)c2oc(=O)cc(OCc3cn(CCO[C@H]4O[C@@H]5O[C@@]6(C)CC[C@H]7[C@H](C)CC[C@@H]([C@H]4C)[C@@]57OO6)nn3)c2c1', '=', 1080),
  ('Cc1cc(C)c2c(Cn3cc(CO[C@H]4O[C@@H]5O[C@@]6(C)CC[C@H]7[C@H](C)CC[C@@H]([C@H]4C)[C@@]57OO6)nn3)cc(=O)oc2c1', '>', 10000),
  ('CN(C)c1ccc(O)c2c1C[C@H]1C[C@H]3[C@H](N(C)C)C(O)=C(C(N)=O)C(=O)[C@@]3(O)C(O)=C1C2=O [Minocycline, reference compound]', '>', 10000),
  ('Cc1cc(C)c2c(OCc3cn(CCO[C@H]4O[C@@H]5O[C@@]6(C)CC[C@H]7[C@H](C)CC[C@@H]([C@H]4C)[C@@]57OO6)nn3)cc(=O)oc2c1', '=', 3360),
  ('C[C@H]1[C@@H](OCCc2cn(Cc3cc4ccccc4oc3=O)nn2)O[C@@H]2O[C@@]3(C)CC[C@H]4[C@H](C)CC[C@@H]1[C@@]24OO3', '=', 970),
  ('C[C@H]1[C@@H](OCCc2cn(Cc3cc4cc(Cl)cc(Cl)c4oc3=O)nn2)O[C@@H]2O[C@@]3(C)CC[C@H]4[C@H](C)CC[C@@H]1[C@@]24OO3', '=', 1350),
  ('Cc1cc(C)c2oc(=O)cc(OCc3cn(CCCO[C@H]4O[C@@H]5O[C@@]6(C)CC[C@H]7[C@H](C)CC[C@@H]([C@H]4C)[C@@]57OO6)nn3)c2c1', '=', 5800),
  ('C[C@H]1[C@@H](OCc2cn(Cc3cc4ccccc4oc3=O)nn2)O[C@@H]2O[C@@]3(C)CC[C@H]4[C@H](C)CC[C@@H]1[C@@]24OO3', '=', 1460),
  ('C[C@H]1[C@@H](OCc2cn(Cc3cc4cc(Cl)ccc4oc3=O)nn2)O[C@@H]2O[C@@]3(C)CC[C@H]4[C@H](C)CC[C@@H]1[C@@]24OO3', '=', 5330),
  ('Cc1ccc2c(Cn3cc(CCO[C@H]4O[C@@H]5O[C@@]6(C)CC[C@H]7[C@H](C)CC[C@@H]([C@H]4C)[C@@]57OO6)nn3)cc(=O)oc2c1', '=', 5690),
  ('Cc1ccc2oc(=O)cc(Cn3cc(CCO[C@H]4O[C@@H]5O[C@@]6(C)CC[C@H]7[C@H](C)CC[C@@H]([C@H]4C)[C@@]57OO6)nn3)c2c1', '>', 10000),
  ('C[C@H]1[C@@H](OCCc2cn(Cc3cc(=O)oc4cc(O)ccc34)nn2)O[C@@H]2O[C@@]3(C)CC[C@H]4[C@H](C)CC[C@@H]1[C@@]24OO3', '=', 2030);

###

tested on: A549 cells; assay: MTT cytotoxicity in A549 cells; assay type: cell-based; settings: Homo sapiens, A549, hypoxia 24 h then normoxia 72 h, read-out: IC50 A549 Hypoxia
One threshold, 20 µM, splits the recorded IC50 values: lower ones are true, equal or higher ones are false.

INSERT INTO measurements (structure_smiles_string, qualitative_label) VALUES
  ('Cc1ccc2oc(=O)cc(Cn3cc(CO[C@H]4O[C@@H]5O[C@@]6(C)CC[C@H]7[C@H](C)CC[C@@H]([C@H]4C)[C@@]57OO6)nn3)c2c1', 'false'),
  ('C[C@H]1[C@@H](OCc2cn(Cc3cc4cc(Cl)ccc4oc3=O)nn2)O[C@@H]2O[C@@]3(C)CC[C@H]4[C@H](C)CC[C@@H]1[C@@]24OO3', 'false'),
  ('Cc1ccc2oc(=O)cc(Cn3cc(CCO[C@H]4O[C@@H]5O[C@@]6(C)CC[C@H]7[C@H](C)CC[C@@H]([C@H]4C)[C@@]57OO6)nn3)c2c1', 'false'),
  ('Cc1ccc2c(OCc3cn(CCO[C@H]4O[C@@H]5O[C@@]6(C)CC[C@H]7[C@H](C)CC[C@@H]([C@H]4C)[C@@]57OO6)nn3)cc(=O)oc2c1C', 'true'),
  ('C[C@H]1[C@@H](OCc2cn(Cc3cc4cc(Cl)cc(Cl)c4oc3=O)nn2)O[C@@H]2O[C@@]3(C)CC[C@H]4[C@H](C)CC[C@@H]1[C@@]24OO3', 'false');
